Attribution: patent US12122778B2

- measured target: PKR(R510Q) (Homo sapiens, UniProt P30613, R510Q)
- Sequence (P30613 whole entry R510Q): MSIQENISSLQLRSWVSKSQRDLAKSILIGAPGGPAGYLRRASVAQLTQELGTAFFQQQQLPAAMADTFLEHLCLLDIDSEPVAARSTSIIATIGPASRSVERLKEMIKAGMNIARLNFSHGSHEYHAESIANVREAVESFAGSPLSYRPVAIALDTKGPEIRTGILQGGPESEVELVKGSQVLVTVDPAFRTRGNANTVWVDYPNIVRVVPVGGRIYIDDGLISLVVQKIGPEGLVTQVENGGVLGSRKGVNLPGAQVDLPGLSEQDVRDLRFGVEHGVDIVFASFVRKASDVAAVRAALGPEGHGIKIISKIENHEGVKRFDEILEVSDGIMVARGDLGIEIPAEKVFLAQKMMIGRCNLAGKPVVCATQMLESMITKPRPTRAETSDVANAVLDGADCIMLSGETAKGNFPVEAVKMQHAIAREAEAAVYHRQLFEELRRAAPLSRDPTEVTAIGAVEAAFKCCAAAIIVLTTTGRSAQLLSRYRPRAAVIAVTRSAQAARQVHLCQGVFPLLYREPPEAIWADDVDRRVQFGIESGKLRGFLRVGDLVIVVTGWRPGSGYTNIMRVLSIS
- assay comment: Luminescence Biochemical Assay (Kinase Glo Plus), PKR R510Q mutant
- assay context: without FBP, read-out: AC50 LUM KGP woFBP MAX % FOLD mean
Below: a set of entries, each annotated with reported Emax.

As a guide, the following entries are already answered.
[[record]]
compound = "COc1ccccc1CNC(=O)N1CC2=C(C1)CN(S(=O)(=O)c1ccc(F)cc1)C2 [Example 20-6]"
measured_target = "PKR(R510Q) (Homo sapiens, UniProt P30613, R510Q)"
val = "250 to 500%"

[[record]]
compound = "O=C(NCc1cnccn1)N1CC2=C(C1)CN(S(=O)(=O)c1ccc3ncsc3c1)C2 [Example 21-30]"
measured_target = "PKR(R510Q) (Homo sapiens, UniProt P30613, R510Q)"
val = "250 to 500%"

[[record]]
compound = "COc1ccccc1CNC(=O)N1CC2=C(C1)CN(S(=O)(=O)c1ccc3ncsc3c1)C2 [Example 21-18]"
measured_target = "PKR(R510Q) (Homo sapiens, UniProt P30613, R510Q)"
val = "250 to 500%"

[[record]]
compound = "O=C(NCc1ccc(F)cc1)N1CC2=C(C1)CN(S(=O)(=O)c1ccc(C(F)(F)F)nc1)C2 [Example 21-39]"
measured_target = "PKR(R510Q) (Homo sapiens, UniProt P30613, R510Q)"
val = "75 to 250%"

[[record]]
compound = "N#Cc1ccccc1S(=O)(=O)N1CC2=C(CN(C(=O)[C@H](O)c3ccccc3)C2)C1 [Example 18-47]"
measured_target = "PKR(R510Q) (Homo sapiens, UniProt P30613, R510Q)"
val = "75 to 250%"

[[record]]
compound = "O=C(C(O)c1cccnc1)N1CC2=C(C1)CN(S(=O)(=O)c1ccc(OC(F)F)cc1)C2 (stereo not drawn) [Example 9-1]"
measured_target = "PKR(R510Q) (Homo sapiens, UniProt P30613, R510Q)"
val = "250 to 500%"


Here is the next item to consider.
[in] Observed Emax on PKR(R510Q) (Homo sapiens, UniProt P30613, R510Q) for O=C(NCc1ccc(F)cc1)N1CC2=C(C1)CN(S(=O)(=O)c1ccc3occc3c1)C2 [Example 20-23] , please.
[out] 250 to 500%
